- system.name: T1, human ferroportin (SLC40A1) fused in frame with GFP, stably expressed in HEK293 cells (human, UniProt Q9NP59 1-571)
- T1 sequence (looked up): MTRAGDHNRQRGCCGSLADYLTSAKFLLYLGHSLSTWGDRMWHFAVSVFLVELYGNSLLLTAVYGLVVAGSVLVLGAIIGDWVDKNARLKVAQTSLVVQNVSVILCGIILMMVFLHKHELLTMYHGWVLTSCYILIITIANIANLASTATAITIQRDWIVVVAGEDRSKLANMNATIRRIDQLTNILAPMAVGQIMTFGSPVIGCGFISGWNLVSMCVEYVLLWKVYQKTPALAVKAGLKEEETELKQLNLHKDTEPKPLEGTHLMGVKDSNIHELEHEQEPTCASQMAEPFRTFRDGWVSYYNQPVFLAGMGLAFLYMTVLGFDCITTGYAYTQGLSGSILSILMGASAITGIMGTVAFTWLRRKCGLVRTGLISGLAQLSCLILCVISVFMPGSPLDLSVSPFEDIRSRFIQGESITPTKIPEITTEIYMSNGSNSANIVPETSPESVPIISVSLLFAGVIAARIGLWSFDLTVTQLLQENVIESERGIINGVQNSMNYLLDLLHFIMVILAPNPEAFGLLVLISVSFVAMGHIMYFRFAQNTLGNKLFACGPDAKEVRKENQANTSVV
- test: cell-based or functional assay
Bridge positions count the residues as written; N and C are the ends. Square brackets hold non-standard residues; d marks the D form. Side chains are listed from the residue outwards. * marks the point of attachment. NMeW = CN[C@@H](Cc1c[nH]c2ccccc12)C(=O)O; Palmitoyl = CCCCCCCCCCCCCCCC(=O)*; Isovaleryl = CC(C)CC(=O)*; Octanoyl = CCCCCCCC(=O)*; Dap = NC[C@H](N)C(=O)O
quantity.name: Potency EC50 (nM), ferroportin-GFP internalization/degradation
// note: answer is a bare numeric in nM

As a guide, the following entries are already answered.
{"binder": "Isovaleryl-DTHFPCIKFEPRSK(Octanoyl)EWVCK-NH2 (disulfide 6-18 (inferred)) [Isovaleric acid-DTHFPCIKFEPRS-K(octanoic acid)-EWVCK-NH2]", "numeric.readout": 62}
{"binder": "Isovaleryl-DTHFPCIKFEPK([Dap-Palmitoyl])SKGCK-NH2 (not fully specified (bridges); cysteine pairing not given here) [Isovaleric acid-DTHFPCIKFEP-K(dapa-Palm)-SKGCK-NH2]", "numeric.readout": 10}
{"binder": "Isovaleryl-DTHFPCIIFGPRSKG[NMeW]VC-NH2 (disulfide 6-18 (inferred)) [Isovaleric acid-DTHFPCIIFGPRSKG-[N-MeTrp]-VC-NH2]", "numeric.readout": 32}

Pending binder:
Record DTHFPCIIFXPHSKGWVC (N-terminal isovaleric acid; Sarc at position 10; N-MeTrp at position 16; C-terminal amide) [Isovaleric acid-DTHFPCIIF-[Sarc]-PHSKG-[N-MeTrp]-VC-NH2] , field Potency EC50 (nM), ferroportin-GFP internalization/degradation: 9
